# procedure text: Toxicity liver stage against HepG2, at 10uM
# Assay type: cell-based
# Parameters: test concentration 10 uM, cell line HepG2-A16-CD81EGFP
# measurement context: human, HepG2-A16-CD81EGFP cells; read-out: INHIBITION
Entries and their cytotoxicity at 10 µM values follow.
Numeric only. Scale: %

- CCC(CNC1CCN(C(=O)N(C)C)CC1)Oc1ccccc1C (configuration not stated): 3.98
- CNC(=O)c1nc(COc2c(C)occc2=O)no1: 3.08
- CCCSCC(=O)N1CCC2(CC1)CC(c1ccccc1)CN(C)C2 (configuration not stated): -7.29
- O=S(=O)(CCCN1CCOC(Cn2cccn2)C1)c1ccccc1 (configuration not stated): -2.54
- CCc1n[nH]c(C2CN(C(=O)CCCn3cccn3)CCO2)n1 (configuration not stated): -6.69

Problem: # query: cytotoxicity at 10 µM of entry `Cc1nn(C)c2cnn(CC(=O)NCCc3ccccc3)c12`
Result: 13.4

Problem: What do you have for `CCOc1nn(CC)cc1-c1nnc(SCc2cccnc2)n1C` ?
Result: 5.97

Problem: Also Cc1ccc(-c2ccnc(NC(c3ncccc3C)C3CC3)n2)c(C)n1 (configuration not stated) , if possible.
Result: 0.656

Problem: Ok, now CN1CCCC1c1cncc(C(=O)NCC2CC2)n1 (configuration not stated)
Result: -8.41

Problem: Can you check CC(O)C1CCN(Cc2nccn2CC(F)(F)F)CC1 (configuration not stated) next?
Result: 4.29

Problem: Also COCC(=O)NCc1cc(=O)n2c(n1)CN(CC1CCOC1)CCC2 (configuration not stated) , if possible.
Result: 1.47

Problem: Please give the result for COc1cc(C(=O)N2CCCC(CNS(C)(=O)=O)C2)cc(OC)c1C (configuration not stated) too.
Result: -7.69
